Source of measurements: the Human Domainome abundance scans (Beltran et al. 2025)

B1: Connector enhancer of kinase suppressor of ras 2, residues 9 to 71; numbered along this chain, Q8WXI2 (parent)
chain: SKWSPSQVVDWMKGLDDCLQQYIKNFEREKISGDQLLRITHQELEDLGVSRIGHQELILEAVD

# Variants of: B1
# experiment summary: abundance fitness (aPCA) (normalised: wild type 0, dead -1); higher = more abundant; growth selection in yeast, the domain comes from the species named
# assay context: Homo sapiens
observable: abundance fitness

Solved cases (3 shown):
Inquiry: Request the reported abundance fitness associated with `G14L`
Reply text: -0.579

Inquiry: Quick one: `E60N`
Reply text: -0.012

Inquiry: Please answer likewise for `L59K`
Reply text: -0.232

Others:
Inquiry: Dear colleague, I am looking for the recorded abundance fitness of the following variant: `L57V`
Reply text: -0.439

Inquiry: How about this variant: `H41Q`
Reply text: -0.037

Inquiry: Query `Q35A` next
Reply text: -0.088

Inquiry: // same read-out, input: `H41P`
Reply text: -0.002

Inquiry: Repeat for the following variant: `D46K`
Reply text: 0.072

Inquiry: Request: `E56L`
Reply text: -0.158

Inquiry: Ok, now `D34H`
Reply text: -0.168

Inquiry: Check `D46T` too.
Reply text: -0.041

Inquiry: Entry `Y22L` please
Reply text: -0.899

Inquiry: Please do the same for `G48M` as well.
Reply text: -0.871

Inquiry: Also need `E29Q` , thanks.
Reply text: -0.005

Inquiry: Continue with `I23H`
Reply text: -0.393
